tested on: P. falciparum 3D7 gametocytes; test: alamarBlue gametocyte viability assay, strain 3D7; assay type: cell-based, Plasmodium falciparum; details: Malaria Box; DMSO set at 0%, 100 nM epoxomicin set at -100%

{"compound": "Cl.Clc1cc(Br)ccc1-c1ccc(CNCC2CCNCC2)o1 [MMV019918]", "Max Resp / %": -106}
{"compound": "CC(=O)c1sc(NC(=O)Nc2ccc(C)cc2C)nc1C [MMV665894]", "Max Resp / %": -23}
{"compound": "O=C1c2ccccc2C2=Nc3ccccc3SC(c3cccc(F)c3)C12 (stereo not shown) [MMV006389]", "Max Resp / %": 8}
{"compound": "c1ccc(-c2ccc(-c3nc4ccccc4[nH]3)cc2)cc1 [MMV665891]", "Max Resp / %": 18}
{"compound": "COc1ccc(-c2nonc2NC(=O)c2cccc(Cl)c2)cc1OC [MMV020660]", "Max Resp / %": -67}
{"compound": "CCOc1ccc(-c2nonc2NC(=O)c2cccc(C)c2)cc1OCC [MMV665805]", "Max Resp / %": -69}
{"compound": "CCOc1cc(Cl)c(C(C)NC(=O)c2cccc(OC)c2)cc1OCC (stereo not shown) [MMV665803]", "Max Resp / %": -58}
{"compound": "Br.Cc1ccc(C)c(-c2csc(Nc3ccc(C)c(C)c3)n2)c1 [MMV007654]", "Max Resp / %": -3}
{"compound": "CCCN(CCC)CC(O)COc1ccccc1C(=O)Nc1ccccc1 (stereo not shown) [MMV006455]", "Max Resp / %": -40}
{"compound": "CN(C)c1ccc(N2C(N)=NC(N)=NC2(C)C)cc1 [MMV667487]", "Max Resp / %": -4}

* * *

test system: P. falciparum HB3 gametocytes; experiment: alamarBlue gametocyte viability assay, strain HB3; format: cell-based, Plasmodium falciparum; details: Plasmodium falciparum, HB3, strain profiling; 11 concentrations, 1:3 dilution, three times; read-out: HB3-gametocytes IC50
pIC50: −log10 of the molar value.
Measured pIC50 of individual entries
parameter-measured: pIC50

{"compound": "COC(=O)C[C@](O)(CCCC(C)(C)O)C(=O)O[C@@H]1C(OC)=C[C@]23CCCN2CCc2cc4c(cc2[C@H]13)OCO4 [Omacetaxine mepesuccinate]", "measured-on": "P. falciparum HB3 gametocytes", "endpoint-result": 7.77}
{"compound": "CC[C@@H](C(=O)O)[C@@H]1O[C@@H]([C@@H](C)[C@H](O)[C@H](C)C(=O)[C@H](CC)[C@H]2O[C@]3(C=C[C@@H](O)[C@]4(CC[C@@](C)([C@H]5CC[C@](O)(CC)[C@H](C)O5)O4)O3)[C@H](C)C[C@@H]2C)[C@@H](C)C[C@@H]1C [Narasin]", "measured-on": "P. falciparum HB3 gametocytes", "endpoint-result": 6.87}
{"compound": "Cc1[nH]c2ccccc2c1CCNCc1ccc(/C=C/C(=O)NO)cc1 [Panobinostat]", "measured-on": "P. falciparum HB3 gametocytes", "endpoint-result": 6.83}
{"compound": "CO[C@@H]1[C@@H](OC)[C@H](C)[C@@](O)(CC(=O)O)O[C@H]1[C@H](C)[C@H]1O[C@@]2(CC[C@@](C)([C@H]3CC[C@@](C)([C@@H]4O[C@@H]([C@H]5O[C@](C)(O)[C@H](C)C[C@@H]5C)C[C@@H]4O[C@@H]4C[C@H](OC)[C@@H](OC)[C@H](C)O4)O3)O2)C[C@H](O)[C@H]1C [Maduramicin ammonium]", "measured-on": "P. falciparum HB3 gametocytes", "endpoint-result": 7.92}
{"compound": "c1cnc2c(c1)ccc1cccnc12 [1,10-Phenanthroline]", "measured-on": "P. falciparum HB3 gametocytes", "endpoint-result": 5.93}
{"compound": "CN(C)c1ccc2nc3ccc(=[N+](C)C)cc-3sc2c1 [Methylene blue]", "measured-on": "P. falciparum HB3 gametocytes", "endpoint-result": 6.03}

* * *

tested on: P. falciparum 3D7 gametocytes; assay: alamarBlue gametocyte viability assay, strain 3D7; type: cell-based, Plasmodium falciparum; conditions: Malaria Box; DMSO set at 0%, 100 nM epoxomicin set at -100%
Label TRUE when Max Resp < -30%; otherwise FALSE.

{"molecule": "COc1ccc(CCn2c(=N)c(C(=O)NCc3cccnc3)cc3c(=O)n4cccc(C)c4nc32)cc1 [MMV667488]", "measured-on": "P. falciparum 3D7 gametocytes", "cat": "TRUE"}
{"molecule": "Cc1ccccc1OCCSc1nc2ccc(NC(=O)c3cccs3)cc2s1 [MMV007396]", "measured-on": "P. falciparum 3D7 gametocytes", "cat": "FALSE"}
{"molecule": "OC(CNC1CCCCC1)Cn1c2ccccc2c2ccccc21 (stereo not drawn) [MMV009063]", "measured-on": "P. falciparum 3D7 gametocytes", "cat": "TRUE"}
{"molecule": "CCOc1cccc2sc(N(Cc3cccnc3)C(=O)C3CCCCC3)nc12 [MMV001230]", "measured-on": "P. falciparum 3D7 gametocytes", "cat": "FALSE"}
{"molecule": "COCCNC(=O)c1ccc(OC2CCN(Cc3ccc(F)c(F)c3)CC2)c(Cl)c1 [MMV666072]", "measured-on": "P. falciparum 3D7 gametocytes", "cat": "FALSE"}
{"molecule": "CCc1ccc(CNCC(O)c2ccccc2)cc1.Cl (stereo not drawn) [MMV665812]", "measured-on": "P. falciparum 3D7 gametocytes", "cat": "TRUE"}
{"molecule": "O=C1CC(O)(C(F)(F)C(F)(F)F)Oc2ccccc21 (stereo not drawn) [MMV000972]", "measured-on": "P. falciparum 3D7 gametocytes", "cat": "TRUE"}
{"molecule": "COCCNCC(O)Cn1c2ccc(Cl)cc2c2cc(Cl)ccc21 (stereo not drawn) [MMV019017]", "measured-on": "P. falciparum 3D7 gametocytes", "cat": "TRUE"}
{"molecule": "O=C(NCCCN1CCC(N2CCCCC2)CC1)C1=Cc2cc(Br)ccc2OC1 [MMV019995]", "measured-on": "P. falciparum 3D7 gametocytes", "cat": "TRUE"}

* * *

# Max Resp annotations
tested on: P. falciparum 3D7 gametocytes; test: alamarBlue gametocyte viability assay, strain 3D7; type: cell-based, Plasmodium falciparum; conditions: Malaria Box; DMSO set at 0%, 100 nM epoxomicin set at -100%

{"structure": "CCc1ccc(Nc2cc(C)nc3nc(C)nn23)cc1", "unit-annotation": "%", "Max Resp": -9}
{"structure": "CCOc1ccc(-n2cc(-c3ccccc3)c3c(SCc4cc(C)ccc4C)ncnc32)cc1", "unit-annotation": "%", "Max Resp": 1}
{"structure": "COc1ccc(-c2cc3c(SCC(=O)Nc4cc(C(F)(F)F)ccc4Cl)nccn3n2)cc1", "unit-annotation": "%", "Max Resp": 0}
{"structure": "FC(F)(F)c1ccc(Nc2nnnc3ccccc23)cc1", "unit-annotation": "%", "Max Resp": 25}
{"structure": "CCOC(=O)c1cnc2ccc(OC)cc2c1NCc1ccccc1", "unit-annotation": "%", "Max Resp": -14}

* * *

system: P. falciparum 3D7 gametocytes; test: alamarBlue gametocyte viability assay, strain 3D7; type: cell-based, Plasmodium falciparum; settings: Malaria Box; DMSO set at 0%, 100 nM epoxomicin set at -100%
parameter-measured: Max Resp (%)

{"compound": "COc1ccc(C(O)(CCC(C)C)C(CN2CCOCC2)c2ccc(Cl)cc2)cc1.Cl (stereo not shown) [MMV000617]", "measured-on": "P. falciparum 3D7 gametocytes", "unit-annotation": "%", "endpoint-result": -31}
{"compound": "COc1ccc2c(c1)OC(O)(C(F)(F)C(F)(F)F)CC2=O (stereo not shown) [MMV007839]", "measured-on": "P. falciparum 3D7 gametocytes", "unit-annotation": "%", "endpoint-result": -23}
{"compound": "Br.CCn1c2c(c(=N)c3c1CCC3)CCCC2 [MMV000340]", "measured-on": "P. falciparum 3D7 gametocytes", "unit-annotation": "%", "endpoint-result": -49}
{"compound": "CCOC(=O)C1=C(c2ccccc2)N=c2sc(=Cc3cc(C)n(-c4ccc(F)cc4)c3C)c(=O)n2C1c1cccc(OC)c1OC (stereo not shown) [MMV666601]", "measured-on": "P. falciparum 3D7 gametocytes", "unit-annotation": "%", "endpoint-result": -26}

* * *

tested on: P. falciparum Dd2 gametocytes; assay: alamarBlue gametocyte viability assay, strain Dd2; format: cell-based, Plasmodium falciparum; conditions: strain profiling; 11 concentrations, 1:3 dilution, three times; read-out: Dd2-gametocytes IC50
pIC50: −log10 of the molar value.
List of pIC50 values.

{"compound": "COc1ncc(-c2ccc3nccc(-c4ccnnc4)c3c2)cc1NS(=O)(=O)c1ccc(F)cc1F [GSK-458]", "pIC50": 5.83}
{"compound": "CC(=O)OC[C@H]1O[C@@H]([S-])[C@H](OC(C)=O)[C@@H](OC(C)=O)[C@@H]1OC(C)=O.CCP(CC)CC.[Au+] [Auranofin]", "pIC50": 5.93}
{"compound": "Cc1cc(NC2CCCCC2)nc(-n2nc(C)cc2C)n1 [CyPPA]", "pIC50": 6.23}
{"compound": "CCN(CC)C(=S)SSC(=S)N(CC)CC [Tetraethylthiuram disulfide]", "pIC50": 6.53}
{"compound": "C=CC1CN2CCC1CC2C(O)c1ccnc2ccc(OC)cc12.C=CC1CN2CCC1CC2C(O)c1ccnc2ccc(OC)cc12.O=S(=O)(O)O (stereo not shown) [Quinine hemisulfate]", "pIC50": 7.08}
{"compound": "Cl.Cl.Cl.Cl.Cl.Cl.N.N.N.N.N.N.N.N.N.N.N.N.N.N.[O-2].[O-2].[Ru+3].[Ru+3].[Ru+4] [Ruthenium red]", "pIC50": 6.28}
{"compound": "CC1(C)OC2=C(C(=O)c3ccccc3C2=O)[C@H](NCc2ccccc2)[C@@H]1O [CAY10581]", "pIC50": 5.63}
